The measured values listed here are drawn from patent US4537895A.

The reader will find reported LD50 at 96 h values listed item by item below.
experiment: Acute toxicity, s.c., LD50; design: species or system mice; conditions: mouse, in vivo, sc, mice, 96 hour observation
Structures can show the parent of a compound that is named as a salt.
Response body: numeric value in µmol/kg, unit text excluded.

Worked cases, LD50 at 96 h given:
**Q:** Recorded LD50 at 96 h for CCNCC(=O)Nc1cccc2c1CN(C)CC2c1ccc(C)cc1 (stereo not shown) [Compound H, maleate] , please?
**A:** 706

**Q:** Recorded LD50 at 96 h for CCCCNCC(=O)Nc1cccc2c1CN(C)CC2c1ccc(C)cc1 (stereo not shown) , please?
**A:** 664

**Q:** Recorded LD50 at 96 h for CN1Cc2c(N)cccc2C(c2ccccc2)C1 (stereo not shown) [Nomifensine, reference compound] , please?
**A:** 1130

Others:
**Q:** Recorded LD50 at 96 h for CCNCC(=O)Nc1cccc2c1CN(C)CC2c1ccc(Cl)cc1 (stereo not shown) , please?
**A:** 686

**Q:** Recorded LD50 at 96 h for CCOC(=O)Nc1cccc2c1CN(C)CC2c1ccc(Cl)cc1 (stereo not shown) , please?
**A:** 2180

---

tested on: ptosis induced by tetrabenazine; experiment: Test 5: inhibition of tetrabenazine-induced ptosis; assay type: in vivo; conditions: LD50 / ED of Test 5
Counter-ions that a name gives are not always drawn.
quantity_name: TI (Test 5), LD/ED quotient
Give the value as a plain number.

Worked cases, TI (Test 5), LD/ED quotient given:
**Q:** Recorded TI (Test 5), LD/ED quotient for CCOC(=O)Nc1cccc2c1CN(C)CC2c1ccc(Cl)cc1 (stereo not shown) [Compound I] , please?
**A:** 1360

**Q:** Recorded TI (Test 5), LD/ED quotient for CCNCC(=O)Nc1cccc2c1CN(C)CC2c1ccc(C)cc1 (stereo not shown) [Compound H, maleate] , please?
**A:** 59

**Q:** Recorded TI (Test 5), LD/ED quotient for CCNCC(=O)Nc1cccc2c1CN(C)CC2c1ccc(Cl)cc1 (stereo not shown) [Compound C] , please?
**A:** 49

**Q:** Recorded TI (Test 5), LD/ED quotient for CN1Cc2c(N)cccc2C(c2ccccc2)C1 (stereo not shown) [Nomifensine, reference compound] , please?
**A:** 268

Turning now to a further record.
**Q:** Recorded TI (Test 5), LD/ED quotient for CCCCNCC(=O)Nc1cccc2c1CN(C)CC2c1ccc(C)cc1 (stereo not shown) [Compound G] , please?
**A:** 133

---

test system: spontaneous motility; assay: Test 3: spontaneous motility; type: in vivo; conditions: LD50 / ED of Test 3
Counter-ions that a name gives are not always drawn.
Lab note - cut at 40 for TI (Test 3), LD/ED quotient: condition met if strictly below, condition not met if not.

Recorded results for 4 compounds are shown here.
**Q:** Below 40 on TI (Test 3), LD/ED quotient? Entry CCNCC(=O)Nc1cccc2c1CN(C)CC2c1ccc(C)cc1 (stereo not shown) [Compound H, maleate]
**A:** condition met

**Q:** Below 40 on TI (Test 3), LD/ED quotient? Entry CCCCNC(=O)Nc1cccc2c1CN(C)CC2c1ccc(C)cc1 (stereo not shown) [Compound F]
**A:** condition not met

**Q:** Below 40 on TI (Test 3), LD/ED quotient? Entry CCOC(=O)Nc1cccc2c1CN(C)CC2c1ccc(Cl)cc1 (stereo not shown) [Compound I]
**A:** condition not met

**Q:** Below 40 on TI (Test 3), LD/ED quotient? Entry CCCCNCC(=O)Nc1cccc2c1CN(C)CC2c1ccc(C)cc1 (stereo not shown) [Compound G]
**A:** condition not met

Others:
**Q:** Below 40 on TI (Test 3), LD/ED quotient? Entry CCNCC(=O)Nc1cccc2c1CN(C)CC2c1ccc(Cl)cc1 (stereo not shown) [Compound C]
**A:** condition met

**Q:** Below 40 on TI (Test 3), LD/ED quotient? Entry CCCCNC(=O)Nc1cccc2c1CN(C)CC2c1ccc(Cl)cc1 (stereo not shown) [Compound E]
**A:** condition not met

---

The reader will find reported TI (Test 6), LD/ED quotient values listed item by item below.
test system: decrease of the rectal temperature caused by reserpine; experiment: Test 6: reserpine-induced decrease of rectal temperature; format: in vivo; conditions: LD50 / ED of Test 6
Structures can show the parent of a compound that is named as a salt.
Give the value as a plain number.

Worked cases, TI (Test 6), LD/ED quotient given:
**Q:** Recorded TI (Test 6), LD/ED quotient for CCCCNCC(=O)Nc1cccc2c1CN(C)CC2c1ccc(C)cc1 (stereo not drawn) [Compound G] , please?
**A:** 32

**Q:** Recorded TI (Test 6), LD/ED quotient for CCNCC(=O)Nc1cccc2c1CN(C)CC2c1ccc(Cl)cc1 (stereo not drawn) [Compound C] , please?
**A:** 62

**Q:** Recorded TI (Test 6), LD/ED quotient for CN1Cc2c(N)cccc2C(c2ccccc2)C1 (stereo not drawn) [Nomifensine, reference compound] , please?
**A:** 40

**Q:** Recorded TI (Test 6), LD/ED quotient for CCNCC(=O)Nc1cccc2c1CN(C)CC2c1ccc(C)cc1 (stereo not drawn) [Compound H, maleate] , please?
**A:** 16

Others:
**Q:** Recorded TI (Test 6), LD/ED quotient for CCOC(=O)Nc1cccc2c1CN(C)CC2c1ccc(Cl)cc1 (stereo not drawn) [Compound I] , please?
**A:** 84

---

system: catalepsy induced by Haloperidol; experiment: Test 2: inhibition of haloperidol-induced catalepsy; type: in vivo; conditions: LD50 / ED of Test 2
Where a name gives a salt, the structure may show the parent alone.
The reader will find reported TI (Test 2), LD/ED quotient values listed item by item below.
Give the value as a plain number.

Worked cases, TI (Test 2), LD/ED quotient given:
**Q:** Recorded TI (Test 2), LD/ED quotient for CCNCC(=O)Nc1cccc2c1CN(C)CC2c1ccc(C)cc1 (stereo not shown) [Compound H, maleate] , please?
**A:** 21

**Q:** Recorded TI (Test 2), LD/ED quotient for CCOC(=O)Nc1cccc2c1CN(C)CC2c1ccc(Cl)cc1 (stereo not shown) , please?
**A:** 40

**Q:** Recorded TI (Test 2), LD/ED quotient for CN1Cc2c(N)cccc2C(c2ccccc2)C1 (stereo not shown) [Nomifensine, reference compound] , please?
**A:** 20

**Q:** Recorded TI (Test 2), LD/ED quotient for CCNCC(=O)Nc1cccc2c1CN(C)CC2c1ccc(Cl)cc1 (stereo not shown) , please?
**A:** 13

Turning now to a further record.
**Q:** Recorded TI (Test 2), LD/ED quotient for CCCCNCC(=O)Nc1cccc2c1CN(C)CC2c1ccc(C)cc1 (stereo not shown) , please?
**A:** 23
